Reported FACS-Seq fitted mean (log10) by item:
B1: library; a variant is named by its letters at N, in order (parent)
chain: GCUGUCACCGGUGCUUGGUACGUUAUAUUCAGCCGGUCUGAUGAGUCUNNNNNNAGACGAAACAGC

variants of: B1; test: FACS-Seq fitted mean relative fluorescence mCherry/BFP with ligand (log10 relative fluorescence); HEK293T overexpressing SLC46A1; ligand concentration (+) FACS-Seq: 6 mM; higher = higher reporter protein expression; details: with (6R,S)-folinic acid; ligand present: yes

{"MUTANT_CODE": "UGCUAG", "FACS-Seq fitted mean (log10)": 0.441}
{"MUTANT_CODE": "AUAAAG", "FACS-Seq fitted mean (log10)": 0.417}
{"MUTANT_CODE": "UUAUAG", "FACS-Seq fitted mean (log10)": 0.396}
{"MUTANT_CODE": "ACCAAA", "FACS-Seq fitted mean (log10)": 0.52}
{"MUTANT_CODE": "GUUUGU", "FACS-Seq fitted mean (log10)": 0.672}
{"MUTANT_CODE": "CACCAU", "FACS-Seq fitted mean (log10)": 0.347}
{"MUTANT_CODE": "ACACAU", "FACS-Seq fitted mean (log10)": 0.348}
{"MUTANT_CODE": "CUGCCC", "FACS-Seq fitted mean (log10)": 0.403}
{"MUTANT_CODE": "UAAGCU", "FACS-Seq fitted mean (log10)": 0.436}
{"MUTANT_CODE": "UACCGC", "FACS-Seq fitted mean (log10)": 0.503}
{"MUTANT_CODE": "AGACCU", "FACS-Seq fitted mean (log10)": 0.641}
{"MUTANT_CODE": "UGAAAU", "FACS-Seq fitted mean (log10)": 0.516}
{"MUTANT_CODE": "GAUUAA", "FACS-Seq fitted mean (log10)": 0.453}
{"MUTANT_CODE": "UAUUAC", "FACS-Seq fitted mean (log10)": 0.38}
{"MUTANT_CODE": "ACGAAA", "FACS-Seq fitted mean (log10)": -0.0169}
{"MUTANT_CODE": "CCUGAU", "FACS-Seq fitted mean (log10)": -0.196}
{"MUTANT_CODE": "GGGAGU", "FACS-Seq fitted mean (log10)": 0.487}
{"MUTANT_CODE": "UGUAGG", "FACS-Seq fitted mean (log10)": 0.855}
{"MUTANT_CODE": "CCUCCA", "FACS-Seq fitted mean (log10)": 0.469}
{"MUTANT_CODE": "UAACUA", "FACS-Seq fitted mean (log10)": 0.41}
{"MUTANT_CODE": "GUUCGG", "FACS-Seq fitted mean (log10)": 0.178}
{"MUTANT_CODE": "UUCGAG", "FACS-Seq fitted mean (log10)": 0.699}
{"MUTANT_CODE": "CUUUUC", "FACS-Seq fitted mean (log10)": 0.481}
{"MUTANT_CODE": "GUUGUG", "FACS-Seq fitted mean (log10)": 0.458}
{"MUTANT_CODE": "AUGUGG", "FACS-Seq fitted mean (log10)": 0.311}
{"MUTANT_CODE": "UAAUAG", "FACS-Seq fitted mean (log10)": 0.58}
{"MUTANT_CODE": "CUUAUU", "FACS-Seq fitted mean (log10)": 0.678}
{"MUTANT_CODE": "UAAGUC", "FACS-Seq fitted mean (log10)": 0.173}
{"MUTANT_CODE": "UUUGAU", "FACS-Seq fitted mean (log10)": 0.206}
{"MUTANT_CODE": "AUAUGG", "FACS-Seq fitted mean (log10)": 0.307}
{"MUTANT_CODE": "UAACUG", "FACS-Seq fitted mean (log10)": 0.499}
{"MUTANT_CODE": "GAUAAU", "FACS-Seq fitted mean (log10)": 0.23}
{"MUTANT_CODE": "GAUUUA", "FACS-Seq fitted mean (log10)": 0.664}
{"MUTANT_CODE": "CAGAAA", "FACS-Seq fitted mean (log10)": 0.441}
{"MUTANT_CODE": "AGUAAA", "FACS-Seq fitted mean (log10)": 0.344}
{"MUTANT_CODE": "GCAAGA", "FACS-Seq fitted mean (log10)": 0.457}
{"MUTANT_CODE": "GAAGUU", "FACS-Seq fitted mean (log10)": 0.481}
{"MUTANT_CODE": "AAUAUU", "FACS-Seq fitted mean (log10)": 0.295}
{"MUTANT_CODE": "UACAAU", "FACS-Seq fitted mean (log10)": 0.559}
{"MUTANT_CODE": "GUCUGG", "FACS-Seq fitted mean (log10)": 0.385}
{"MUTANT_CODE": "UAGACG", "FACS-Seq fitted mean (log10)": 0.17}
{"MUTANT_CODE": "GCGCAC", "FACS-Seq fitted mean (log10)": 0.311}
{"MUTANT_CODE": "UAAAAA", "FACS-Seq fitted mean (log10)": 0.164}
{"MUTANT_CODE": "AAAUAG", "FACS-Seq fitted mean (log10)": -0.332}
{"MUTANT_CODE": "AAUGCG", "FACS-Seq fitted mean (log10)": 0.405}
{"MUTANT_CODE": "CGGUGU", "FACS-Seq fitted mean (log10)": 0.278}
